For each record, write down the corresponding phosphorylation enrichment.
target: MERTK (UniProt Q12866); assay: phosphorylation enrichment, bacterial display (enrichment ratio); higher = better substrate or ligand; peptides without Tyr show the background
Sequence (Q12866 whole entry, looked up): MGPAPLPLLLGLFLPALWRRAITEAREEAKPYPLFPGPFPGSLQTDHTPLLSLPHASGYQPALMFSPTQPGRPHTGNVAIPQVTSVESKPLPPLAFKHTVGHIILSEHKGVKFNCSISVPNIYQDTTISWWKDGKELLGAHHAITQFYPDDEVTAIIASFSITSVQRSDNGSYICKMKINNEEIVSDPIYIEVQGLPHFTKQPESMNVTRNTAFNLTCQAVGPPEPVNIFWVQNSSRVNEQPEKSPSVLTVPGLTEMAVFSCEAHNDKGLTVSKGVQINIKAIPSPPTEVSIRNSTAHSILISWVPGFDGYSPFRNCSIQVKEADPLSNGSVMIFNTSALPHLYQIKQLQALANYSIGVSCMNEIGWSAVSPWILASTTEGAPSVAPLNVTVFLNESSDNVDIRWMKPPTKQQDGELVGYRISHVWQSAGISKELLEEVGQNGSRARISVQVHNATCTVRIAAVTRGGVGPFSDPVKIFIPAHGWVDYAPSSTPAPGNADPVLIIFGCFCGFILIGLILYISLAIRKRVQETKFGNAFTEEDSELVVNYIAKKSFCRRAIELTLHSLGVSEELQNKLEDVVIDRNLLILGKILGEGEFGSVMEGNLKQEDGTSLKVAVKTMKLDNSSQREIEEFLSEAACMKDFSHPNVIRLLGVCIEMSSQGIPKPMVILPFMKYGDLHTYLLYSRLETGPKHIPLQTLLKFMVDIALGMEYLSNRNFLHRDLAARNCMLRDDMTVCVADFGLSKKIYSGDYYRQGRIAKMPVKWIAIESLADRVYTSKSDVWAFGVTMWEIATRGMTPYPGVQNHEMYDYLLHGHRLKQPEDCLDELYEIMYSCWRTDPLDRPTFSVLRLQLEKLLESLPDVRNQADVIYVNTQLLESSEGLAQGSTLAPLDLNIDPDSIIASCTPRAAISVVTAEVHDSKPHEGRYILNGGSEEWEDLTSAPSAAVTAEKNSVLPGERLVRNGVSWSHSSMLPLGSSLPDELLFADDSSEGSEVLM
Answers are plain numbers.

Worked examples, 5 sequences total:
sequence_entry="ISKKHYAGLLF [POLD1_Y809_R808H]" numeric_readout=0.456
sequence_entry="SRGSSYSSIPK [FLNC_Y2625]" numeric_readout=0.489
sequence_entry="ERDYTYDELLN [EIF2S2_Y176_E177D]" numeric_readout=0.498
sequence_entry="RALCHYYKLNI [ETV6_Y401_R399C]" numeric_readout=3.95
sequence_entry="SVCPDYDLCSV [SQSTM1_Y148]" numeric_readout=0.524

Please supply phosphorylation enrichment for each of the following items, keeping them in order.
1. DGYTDYAEFAK [MCFD2_Y138_I136T]
2. VDEERYDIEAK [TNNI3_Y112]
3. RLGDLYEEEMR [VIM_Y150]

*A*
0.463
0.439
0.335

###

molecular target: Grb2 SH2 (UniProt P62993); experiment: SH2 binding enrichment of the phosphorylated peptide, bacterial display (enrichment ratio); higher = better substrate or ligand; peptides without Tyr show the background
Sequence (P62993 whole entry, looked up): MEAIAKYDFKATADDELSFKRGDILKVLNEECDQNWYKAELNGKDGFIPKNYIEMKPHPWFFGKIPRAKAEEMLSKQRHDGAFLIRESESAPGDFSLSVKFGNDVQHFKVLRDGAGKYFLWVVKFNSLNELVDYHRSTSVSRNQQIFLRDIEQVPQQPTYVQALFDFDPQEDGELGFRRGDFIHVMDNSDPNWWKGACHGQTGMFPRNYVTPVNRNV
Output Yes for SH2 binding enrichment not less than 0.8; output No otherwise.

Here are 5 sequences together with their reported answers.
sequence_entry="ADAGMYGVLPW [PLP1_Y207_R205G]" tested_target="Grb2 SH2 (UniProt P62993)" group_label=No
sequence_entry="SIGLGYHKDLQ [NF1_Y1169]" tested_target="Grb2 SH2 (UniProt P62993)" group_label=No
sequence_entry="LNYNEYFRDLN [HPRT1_Y198_D194N]" tested_target="Grb2 SH2 (UniProt P62993)" group_label=Yes
sequence_entry="QWRTKYEMDAI [MYH7_Y1375_T1377M]" tested_target="Grb2 SH2 (UniProt P62993)" group_label=Yes
sequence_entry="KVKPIYFRTQG [AR_Y916_H918R]" tested_target="Grb2 SH2 (UniProt P62993)" group_label=Yes

*Q* Quick check, SH2 binding enrichment >= 0.8? REQREYLDQLN [CCDC88B_Y1277]
*A* No

*Q* Then what about the sequence QRIYQYIRSRF [DYRK1B_Y273_Q275R] ?
*A* Yes

*Q* Then what about the sequence PAKPRYRARQR [KCNJ11_Y26_E23K] ?
*A* No

*Q* Then what about the sequence FGSVMYEFVGK [SLC18A1_Y251] ?
*A* No

*Q* Then what about the sequence VDDEIYYFRKP [PBRM1_Y1289] ?
*A* Yes

*Q* Then what about the sequence SDPIVYTLENI [EMR1_Y534_I533V] ?
*A* No

*Q* Then what about the sequence EERNPYYSSAR [MCCC2_Y520_G517R] ?
*A* Yes

*Q* Then what about the sequence HNELFYEEAEH [VANGL1_Y345_YF] ?
*A* No

*Q* Then what about the sequence LSGVIYVILGK [PMP22_Y153_R157G] ?
*A* No

*Q* Then what about the sequence STEAIYRRYSK [SH3PXD2B_Y42] ?
*A* Yes

*Q* Then what about the sequence ENFSEYQEISV [HEMGN_Y150_A154S] ?
*A* Yes

*Q* Then what about the sequence RFLERYIYNPE [HLA-DPB1_Y57_R61P] ?
*A* Yes
